System: RARg:RXRa (NR concentration 270 nM, RXRa partner concentration 90 nM)
Test: PBM binding z-score (relative to random genomic background probes); higher = stronger binding; sequences stand for … in GC…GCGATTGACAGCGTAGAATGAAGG
observable: PBM binding z-score

INPUT: State PBM binding z-score (RARg:RXRa (NR concentration 270 nM, RXRa partner concentration 90 nM)) of `CCTAGTTGGTCAAGGTCATACACGCTATAGGTAC` .
OUTPUT: 4.12

INPUT: Give measured PBM binding z-score for `CGAACGAGGGCATGAGTTGATGGCAAATGCCGAT` (RARg:RXRa (NR concentration 270 nM, RXRa partner concentration 90 nM)).
OUTPUT: 1.25

INPUT: # return PBM binding z-score of `ATATGTAGGTTAGCTGGGATCATTCAGACTAGGC` (system: RARg:RXRa (NR concentration 270 nM, RXRa partner concentration 90 nM))
OUTPUT: 0.559

INPUT: Lab note: record PBM binding z-score of `CGAACTAGGTCATTGACAGCACAGTGAATAGTAA` tested on RARg:RXRa (NR concentration 270 nM, RXRa partner concentration 90 nM).
OUTPUT: 3.46

INPUT: Identify measured PBM binding z-score obtained with RARg:RXRa (NR concentration 270 nM, RXRa partner concentration 90 nM) for `CAAACTAGGTCACCGGAAGGTCACAGTCCGCATG` .
OUTPUT: 8.31

INPUT: Write PBM binding z-score of `CGTCCAAGGTCAAGGTCTGTGAAAGAGACTCGAA` ; system used: RARg:RXRa (NR concentration 270 nM, RXRa partner concentration 90 nM)
OUTPUT: 6.09

INPUT: GET PBM binding z-score | system: RARg:RXRa (NR concentration 270 nM, RXRa partner concentration 90 nM) | item: `GCTCGGAGGACTAGGTCAGAGCTTTGTCCGTAGA`
OUTPUT: 0.32

INPUT: State, for RARg:RXRa (NR concentration 270 nM, RXRa partner concentration 90 nM), measured PBM binding z-score of the sequence listed here: `ATATGTAGGTTAGCTGGGGTTATTCAGACTAGGC`
OUTPUT: 1.54

INPUT: Name the recorded PBM binding z-score of `CGTCCAAGGTCAGCAGGTCAGTGAGAGCGACGTG` , assay system RARg:RXRa (NR concentration 270 nM, RXRa partner concentration 90 nM).
OUTPUT: 6.35

INPUT: Give measured PBM binding z-score for `GCTGCTAGGTCAGCTTGGTCAGCTAACGGGTACG` (RARg:RXRa (NR concentration 270 nM, RXRa partner concentration 90 nM)).
OUTPUT: 2.8

INPUT: // fetch PBM binding z-score for `TCTATTCGTTGAAGGGCAACCGACGAGTCCGTTT` ; system: RARg:RXRa (NR concentration 270 nM, RXRa partner concentration 90 nM)
OUTPUT: 0.744

INPUT: Answer with PBM binding z-score of `TCATATAGGTAAATGCTAGGTGAAAATCCGATCT` measured for RARg:RXRa (NR concentration 270 nM, RXRa partner concentration 90 nM).
OUTPUT: 0.578

====

Test system: RXRa DBDmut IVT, anti-RXR (DBD mutation: RXRa K156A/R161A, NR concentration 90 nM)
Test: PBM binding z-score (relative to random genomic background probes); higher = stronger binding; sequences stand for … in GC…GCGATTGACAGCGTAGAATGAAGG
Task for the reader: assign each of the following sequences its reported PBM binding z-score.
// keep it numeric: no unit symbol after the value

INPUT: // fetch PBM binding z-score for `CGAACTAGGTCATCCAGGAGAGTGAATACATTGA` ; system: RXRa DBDmut IVT, anti-RXR (DBD mutation: RXRa K156A/R161A, NR concentration 90 nM)
OUTPUT: 2.19

INPUT: Please respond with reported PBM binding z-score (system RXRa DBDmut IVT, anti-RXR (DBD mutation: RXRa K156A/R161A, NR concentration 90 nM)) for `TAGCCTAGGTCTTGCGGGCCAGTATAGTGTCGGC` .
OUTPUT: -1.09

INPUT: Enter measured PBM binding z-score, system RXRa DBDmut IVT, anti-RXR (DBD mutation: RXRa K156A/R161A, NR concentration 90 nM), for the sequence shown: `ATATCTAGGTAAAGATAGTTCAGTGAATGCAAAT`
OUTPUT: 0.0845

INPUT: Report value: PBM binding z-score, system: RXRa DBDmut IVT, anti-RXR (DBD mutation: RXRa K156A/R161A, NR concentration 90 nM), sequence: `GCAGACAGGTGAATCGCAGGTAACTCAGGGTGGC`
OUTPUT: -0.612

INPUT: # lookup: RXRa DBDmut IVT, anti-RXR (DBD mutation: RXRa K156A/R161A, NR concentration 90 nM) PBM binding z-score, key = `CGAACTAGGTCATCCAGGACAGTGAGTACATTGA`
OUTPUT: 2.58

INPUT: Retrieve PBM binding z-score on RXRa DBDmut IVT, anti-RXR (DBD mutation: RXRa K156A/R161A, NR concentration 90 nM); query `TCTCGGAGGACTCGAAGGTCAGAGCTTTCCAGAG`
OUTPUT: 0.262

INPUT: Please respond with reported PBM binding z-score (system RXRa DBDmut IVT, anti-RXR (DBD mutation: RXRa K156A/R161A, NR concentration 90 nM)) for `ATCTCGAGGTAACCAAGTTCAGTGAATGCCGAAC` .
OUTPUT: 0.865

INPUT: Give PBM binding z-score; test system RXRa DBDmut IVT, anti-RXR (DBD mutation: RXRa K156A/R161A, NR concentration 90 nM); sequence `ATCTCTAGGTAACAAGTTCGGTGAAAGAGAGGAC`
OUTPUT: 0.327

INPUT: Write down measured PBM binding z-score (RXRa DBDmut IVT, anti-RXR (DBD mutation: RXRa K156A/R161A, NR concentration 90 nM)) for this sequence. `TCTTGTAGATCAACAGGAGGTTAAGTAAGATCGA`
OUTPUT: 0.388

INPUT: System RXRa DBDmut IVT, anti-RXR (DBD mutation: RXRa K156A/R161A, NR concentration 90 nM). Read-out PBM binding z-score. Item `ATCGTAAGGTCGAAGGTGAGTATACCCACCCGAA` . Report value.
OUTPUT: 1.58

INPUT: With RXRa DBDmut IVT, anti-RXR (DBD mutation: RXRa K156A/R161A, NR concentration 90 nM) as the test system, provide measured PBM binding z-score for this sequence: `CGTACTAGGTCATTGACAGGACAGTGAATAGTAA`
OUTPUT: 2.38

INPUT: Provide the reported PBM binding z-score (system: RXRa DBDmut IVT, anti-RXR (DBD mutation: RXRa K156A/R161A, NR concentration 90 nM)) for `AATACAGGGTCATCGAAGGCCAGAGTACGCACAG`
OUTPUT: 3.38

INPUT: State the measured PBM binding z-score (RXRa DBDmut IVT, anti-RXR (DBD mutation: RXRa K156A/R161A, NR concentration 90 nM)) of `TCTATTAGTTGATTAGAGCAACCGAAACAGCGGA`
OUTPUT: 0.765

INPUT: Report PBM binding z-score under test system RXRa DBDmut IVT, anti-RXR (DBD mutation: RXRa K156A/R161A, NR concentration 90 nM) for `TCTCGGAGGACGCGAAGGTCAGAGCTTTCCAGAG` .
OUTPUT: 0.401

INPUT: // fetch PBM binding z-score; item: `CCGACTGGGGCATAACGTTACCATAAGCCAGCCC` ; system: RXRa DBDmut IVT, anti-RXR (DBD mutation: RXRa K156A/R161A, NR concentration 90 nM)
OUTPUT: -0.083

INPUT: Tell me PBM binding z-score of `CCTTCTGGGCCAAAAAGGTCATTGATGCCGATAA` when tested on RXRa DBDmut IVT, anti-RXR (DBD mutation: RXRa K156A/R161A, NR concentration 90 nM).
OUTPUT: 1.29

INPUT: Report value only: PBM binding z-score, RXRa DBDmut IVT, anti-RXR (DBD mutation: RXRa K156A/R161A, NR concentration 90 nM), `CCAGACAGGTGAAAGGTAACTCAATCTGGTACGC`
OUTPUT: 0.203

INPUT: // fetch PBM binding z-score for `CCGACTGGGGCAAAGATTACCATACTCAGTACGA` ; system: RXRa DBDmut IVT, anti-RXR (DBD mutation: RXRa K156A/R161A, NR concentration 90 nM)
OUTPUT: 0.314

INPUT: Please tell me the measured PBM binding z-score for `TCGAGTAGGTTAGTCGGGGTATTCAGCCAACATA` ; system: RXRa DBDmut IVT, anti-RXR (DBD mutation: RXRa K156A/R161A, NR concentration 90 nM).
OUTPUT: 0.0822

INPUT: Consider the sequence `CCGACTGGGGCAAGGTTCCCATAACGCACAGCCA` tested on RXRa DBDmut IVT, anti-RXR (DBD mutation: RXRa K156A/R161A, NR concentration 90 nM); state its PBM binding z-score.
OUTPUT: -0.627

INPUT: Tell me PBM binding z-score of `CAAACTGGGTCAAAGGTCAAAGTCGAGCCAACCA` when tested on RXRa DBDmut IVT, anti-RXR (DBD mutation: RXRa K156A/R161A, NR concentration 90 nM).
OUTPUT: 2.55

INPUT: Please respond with reported PBM binding z-score (system RXRa DBDmut IVT, anti-RXR (DBD mutation: RXRa K156A/R161A, NR concentration 90 nM)) for `CCTAGTTGGTCAGGAGGTGACACACCGGATATGA` .
OUTPUT: -0.691

INPUT: Give PBM binding z-score; test system RXRa DBDmut IVT, anti-RXR (DBD mutation: RXRa K156A/R161A, NR concentration 90 nM); sequence `CTCGAAAGGTCGTGTTCAGGTGAGTATACCAAAC`
OUTPUT: 2.35

INPUT: State PBM binding z-score on RXRa DBDmut IVT, anti-RXR (DBD mutation: RXRa K156A/R161A, NR concentration 90 nM). Entry: `ACTTACGGGTCAATGAGGTTATAGCACGCGTATA`
OUTPUT: 2.58

INPUT: Look up RXRa DBDmut IVT, anti-RXR (DBD mutation: RXRa K156A/R161A, NR concentration 90 nM) data: PBM binding z-score of `TAGCTTAGGTCAGATCGGGCCAGTATACGCTATA` , then report it.
OUTPUT: -0.0319

INPUT: Check RXRa DBDmut IVT, anti-RXR (DBD mutation: RXRa K156A/R161A, NR concentration 90 nM) data and give PBM binding z-score for `ACAGACAGGTGATAAAGGTAACTCAGGCTATCAT` .
OUTPUT: -0.109
